These data points were gathered from the supplement of paper PMC9170038.

apparent KD of MS2 coat protein listing for selected sequences.
- Tested on: MS2 coat protein
- ASSAY_REMARKS: apparent KD of MS2 coat protein; higher = weaker reporter binding
- EXPERIMENTAL_CONTEXT: Eterna round: R107; input ligand: arginine 13.2 mM
Just the number please, in nM, no unit attached.

Name the recorded apparent KD of MS2 coat protein of the item UUAUAUUAUCGAAGGAGCGUCACAUGAGGAUCACCCAUGUACAUGAGGAUCACCCAUGUGUGGCAGGUAGGUCGCGAUAUAUAAC [Exclusion Arginine B GF9] in your answer. 120

Name the recorded apparent KD of MS2 coat protein of the item UAUCCACAUGAGGAUCACCCAUGUUAGGAAGGAGCGGUGAGUGCACCAGGUAGGUCGCCUAGCUGAGGACUGUCGGUGGAUUCGU [Exclusion - Arginine A (Freestyle 20)] in your answer. 39.7
